Data origin: ChEMBL document CHEMBL4725353

I'd appreciate it if you could supply fraction unbound at 24 h values for the items below.
Experiment: Plasma protein binding in iv dosed CD-1 mouse measured up to 24 hrs by LC-MS/MS analysis
Format: ADME, organism-based
Conditions: read-out: PPB (converted)
Simply state the number, no unit and no words.

Input line: Report measured fraction unbound at 24 h; entry is "CCNc1cc(F)cc2c1[nH]c1ncc(-c3cnc(OC)nc3)c(-n3ncc4c3CNC4)c12"
Output line: 0.11

Input line: Please look at this molecule and report its fraction unbound at 24 h: "CCNc1cc(F)cc2c1[nH]c1ncc(-c3cnc(OC)nc3)c(-n3cc(CN)c(C(F)(F)F)n3)c12"
Output line: 0.11

Input line: Give a short answer stating reported fraction unbound at 24 h for "CCNc1cc(F)cc2c1[nH]c1ncc(-c3cncc(C#N)c3)c(-n3cc(CN)c(C(F)(F)F)n3)c12" .
Output line: 0.11

----------
Assay: Protein binding in plasma (unknown origin) assessed as unbound fraction at 1 uM after 5 hrs by LC/MS-MS analysis
Type: ADME, cell-free
Property Name: fraction unbound at 5 h, 1 µM
// keep it numeric: no unit symbol after the value

Input line: Recall and state the measured fraction unbound at 5 h, 1 µM for "CCNc1cc(F)cc2c1[nH]c1ncc(-c3cnc(OC)nc3)c(-n3nc(C(F)(F)F)c4c3CNC4)c12" .
Output line: 0.016

Input line: Annotate the molecule "CCNc1cc(F)cc2c1[nH]c1ncc(-c3cnc(OC)nc3)c(-n3ncc4c3CNC4)c12" with its measured fraction unbound at 5 h, 1 µM.
Output line: 0.11

Input line: # return recorded fraction unbound at 5 h, 1 µM for entry "CCNc1cc(F)cc2c1[nH]c1ncc(-c3cncc(C#N)c3)c(-n3cc(CN)c(C(F)(F)F)n3)c12"
Output line: 0.012

Input line: Answer with reported fraction unbound at 5 h, 1 µM of "CCNc1cc(F)cc2c1[nH]c1ncc(-c3cncc(C#N)c3)c(-n3ncc4c3CNC4)c12"
Output line: 0.044

Input line: Please list fraction unbound at 5 h, 1 µM recorded for the molecule "CCNc1cc(F)cc2c1[nH]c1ncc(-c3cncc(C#N)c3)c(-n3nc(C(F)(F)F)c4c3CNC4)c12"
Output line: 0.012

Input line: Give a short answer stating reported fraction unbound at 5 h, 1 µM for "CCNc1cc(F)cc2c1[nH]c1ncc(-c3cnc(OC)nc3)c(-n3cc(CN)c(C(F)(F)F)n3)c12" .
Output line: 0.027

----------
So I've got a bunch of molecules here, and I need their MIC values.
Tested on: Escherichia coli
Test: Antibacterial activity against Escherichia coli ATCC 35218 assessed as reduction in microbial growth preincubated for 20 to 24 hrs followed by subculture in absence of compound and measured on day 4 CLSI based broth microdilution susceptibility method
Format: functional
Details: time hrs 20-24
Express your answer in µg/mL, writing the number without its unit.

Input line: Name the recorded MIC of the item "CCNc1cc(F)cc2c1[nH]c1ncc(-c3cnc4ccnn4c3)c(-n3ccc(C(F)(F)F)n3)c12" in your answer.
Output line: 0.75

Input line: Recall and state the measured MIC for "CCNc1cc(F)cc2c1[nH]c1ncc(-c3cncc(CO)c3)c(-n3ccc(C(F)(F)F)n3)c12" .
Output line: 1.47

Input line: Report MIC, nothing else, for this molecule: "CCNc1cc(F)cc2c1[nH]c1ncc(-c3cnc(OC)nc3)c(-n3cc(CN)c(C(F)(F)F)n3)c12"
Output line: 3.13

Input line: Give a short answer stating reported MIC for "CCNc1cc(F)cc2c1[nH]c1ncc(-c3cncc(C(N)=O)c3)c(-n3ccc(C(F)(F)F)n3)c12" .
Output line: 0.76

Input line: Check the records and state MIC for "CCNc1cc(F)cc2c1[nH]c1ncc(-c3cncc(N)c3)c(-n3ccc(C(F)(F)F)n3)c12"
Output line: 2.85

Input line: State its MIC for this molecule: "CCNc1cc(F)cc2c1[nH]c1ncc(-c3cncc(C#N)c3)c(-n3cc(CN)c(C(F)(F)F)n3)c12"
Output line: 1

Input line: Determine its reported MIC: "CCNc1cc(F)cc2c1[nH]c1ncc(-c3cnc(OC)nc3)c(-n3ncc4c3CNC4)c12"
Output line: 5.56

Input line: Return value of MIC for input "CCNc1cc(F)cc2c1[nH]c1ncc(-c3cncnc3)c(-n3ccc(C(F)(F)F)n3)c12" , no commentary.
Output line: 0.34

Input line: In one line, give reported MIC of the entry "CCNc1cc(F)cc2c1[nH]c1ncc(-c3cncc(C#N)c3)c(-n3ccc(C(F)(F)F)n3)c12" .
Output line: 1.45
